TEST TARGET: Bile salt export pump (Homo sapiens)
Sequence (O95342 whole entry): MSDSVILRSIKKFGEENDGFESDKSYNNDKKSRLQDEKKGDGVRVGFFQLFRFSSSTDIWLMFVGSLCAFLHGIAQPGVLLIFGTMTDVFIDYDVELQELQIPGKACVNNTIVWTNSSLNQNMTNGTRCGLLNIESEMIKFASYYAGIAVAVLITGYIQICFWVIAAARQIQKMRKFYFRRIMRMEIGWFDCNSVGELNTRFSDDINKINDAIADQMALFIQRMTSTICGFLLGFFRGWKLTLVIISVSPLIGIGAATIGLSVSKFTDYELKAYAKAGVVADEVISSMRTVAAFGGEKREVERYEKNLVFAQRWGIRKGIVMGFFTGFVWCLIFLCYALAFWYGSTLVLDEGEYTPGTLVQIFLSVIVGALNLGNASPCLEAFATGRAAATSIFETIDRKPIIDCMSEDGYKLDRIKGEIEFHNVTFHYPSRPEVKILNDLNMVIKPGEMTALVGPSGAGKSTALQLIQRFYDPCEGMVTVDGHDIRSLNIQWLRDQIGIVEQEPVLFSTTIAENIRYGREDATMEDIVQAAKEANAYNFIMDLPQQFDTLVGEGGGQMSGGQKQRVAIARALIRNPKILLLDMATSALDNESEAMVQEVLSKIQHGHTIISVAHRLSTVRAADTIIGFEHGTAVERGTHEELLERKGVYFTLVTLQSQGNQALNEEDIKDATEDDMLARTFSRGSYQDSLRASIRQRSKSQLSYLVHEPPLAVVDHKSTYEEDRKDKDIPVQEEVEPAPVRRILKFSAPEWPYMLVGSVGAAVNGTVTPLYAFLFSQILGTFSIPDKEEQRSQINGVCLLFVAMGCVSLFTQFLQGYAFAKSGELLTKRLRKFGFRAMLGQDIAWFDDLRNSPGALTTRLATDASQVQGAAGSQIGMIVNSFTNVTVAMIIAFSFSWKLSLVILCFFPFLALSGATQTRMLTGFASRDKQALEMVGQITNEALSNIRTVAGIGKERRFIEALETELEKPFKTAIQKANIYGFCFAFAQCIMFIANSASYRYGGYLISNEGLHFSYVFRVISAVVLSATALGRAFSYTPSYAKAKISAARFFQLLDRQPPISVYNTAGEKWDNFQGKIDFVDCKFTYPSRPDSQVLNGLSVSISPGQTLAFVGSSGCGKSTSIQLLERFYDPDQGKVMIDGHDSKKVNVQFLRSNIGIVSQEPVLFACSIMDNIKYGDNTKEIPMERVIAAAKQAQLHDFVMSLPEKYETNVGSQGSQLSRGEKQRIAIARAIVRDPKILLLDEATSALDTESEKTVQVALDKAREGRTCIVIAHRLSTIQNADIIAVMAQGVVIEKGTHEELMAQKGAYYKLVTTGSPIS
PROTOCOL TEXT: Inhibition of human BSEP overexpressed in Sf9 cell membrane vesicles assessed as uptake of [3H]-taurocholate in presence of ATP measured after 15 to 20 mins by membrane vesicle transport assay
pIC50: −log10 of the molar value. Where a name gives a salt, the structure may show the parent alone.
OBSERVED PROPERTY: pIC50

Form: compound = C[C@@H](O)[C@H]1C(=O)N2C(C(=O)O)=C(S[C@@H]3CN[C@H](C(=O)N(C)C)C3)[C@H](C)[C@H]12 ; pIC50 = < 3.88

Form: compound = CC(C)C[C@H](NC(=O)[C@H](Cc1ccccc1)NC(=O)c1cnccn1)B(O)O ; pIC50 = < 3.88

Form: compound = CCCC[C@](C)(O)C/C=C/[C@H]1[C@H](O)CC(=O)[C@@H]1CCCCCCC(=O)OC ; pIC50 = 4.56

Form: compound = Cc1cnc(NC(=O)C2=C(O)c3ccccc3S(=O)(=O)N2C)s1 ; pIC50 = 4.11

Form: compound = CC(=O)CCCCn1c(=O)c2c(ncn2C)n(C)c1=O ; pIC50 = < 3.88

Form: compound = C=C[C@H]1C[N@@]2CC[C@H]1C[C@@H]2[C@@H](O)c1ccnc2ccc(OC)cc12 ; pIC50 = < 3.88

Form: compound = NC(N)=Nc1nc(CSCCC(N)=NS(N)(=O)=O)cs1 ; pIC50 = < 3.88

Form: compound = Nc1c2c(nc3ccccc13)CCCC2 ; pIC50 = < 3.88

Form: compound = CC1=NS(=O)(=O)c2cc(Cl)ccc2N1 [DIAZOXIDE] ; pIC50 = < 3.88

Form: compound = CC(=O)Oc1ccccc1C(=O)Nc1ncc([N+](=O)[O-])s1 [NITAZOXANIDE] ; pIC50 = < 3.88

Form: compound = CC(=O)OCC(=O)[C@@]1(O)[C@H](OC(C)=O)C[C@H]2[C@@H]3CCC4=CC(=O)C=C[C@]4(C)[C@@]3(F)[C@@H](O)C[C@@]21C [TRIAMCINOLONE DIACETATE] ; pIC50 = < 3.88

Form: compound = CC(C)CN(C[C@@H](O)[C@H](Cc1ccccc1)NC(=O)O[C@H]1CCOC1)S(=O)(=O)c1ccc(N)cc1 ; pIC50 = 4.35

Form: compound = NCC1O[C@H](O[C@H]2[C@@H](O)[C@H](O[C@H]3[C@H](O)[C@@H](N)C[C@@H](N)[C@@H]3O[C@H]3O[C@H](CN)[C@@H](O)[C@H](O)[C@H]3N)O[C@@H]2CO)[C@H](N)[C@@H](O)[C@@H]1O (some centres undefined) ; pIC50 = < 3.88

Form: compound = C[C@@H]1C[C@H]2[C@@H]3CCC4=CC(=O)C=C[C@]4(C)[C@@]3(F)[C@@H](O)C[C@]2(C)[C@@]1(O)C(=O)CO ; pIC50 = < 3.88

Form: compound = CNNCc1ccc(C(=O)NC(C)C)cc1 [PROCARBAZINE HYDROCHLORIDE] ; pIC50 = < 3.88

Form: compound = O=NN(CCCl)C(=O)NC1CCCCC1 ; pIC50 = < 3.88

Form: compound = C=C1CC[C@@]2(O)[C@H]3Cc4ccc(O)c5c4[C@@]2(CCN3CC2CC2)[C@H]1O5 ; pIC50 = < 3.88

Form: compound = Cc1cnc(C(=O)O)c[n+]1[O-] ; pIC50 = < 3.88

Form: compound = Cc1ccc(Nc2nccc(N(C)c3ccc4c(C)n(C)nc4c3)n2)cc1S(N)(=O)=O ; pIC50 = 4.99

Form: compound = C#C[C@]1(O)CC[C@H]2[C@@H]3CCC4=Cc5oncc5C[C@]4(C)[C@H]3CC[C@@]21C ; pIC50 = 4.73

Form: compound = COc1ccc(-c2ccc3cc(C(=O)O)ccc3c2)cc1C12CC3CC(CC(C3)C1)C2 ; pIC50 = < 3.88

Form: compound = O=P(O)(O)C(O)(Cn1ccnc1)P(=O)(O)O ; pIC50 = < 3.88

Form: compound = CCCCNc1cc(C(=O)O)cc(S(N)(=O)=O)c1Oc1ccccc1 [BUMETANIDE] ; pIC50 = < 3.88

Form: compound = CC(=O)Nc1ccc(S(=O)(=O)Nc2ccc([N+](=O)[O-])cc2)cc1 ; pIC50 = < 3.88

Form: compound = CCCCCNC(=N)N/N=C/c1c[nH]c2ccc(OC)cc12 [TEGASEROD MALEATE] ; pIC50 = < 3.88

Form: compound = N#C[C@@H]1CCCN1C(=O)CNC12CC3CC(CC(O)(C3)C1)C2 ; pIC50 = < 3.88

Form: compound = COC(=O)C1=C(C)NC(C)=C(C(=O)OCC(C)C)C1c1ccccc1[N+](=O)[O-] (centres undefined) ; pIC50 = 4.48

Form: compound = CCN(CC)CCNC(=O)c1cc(S(C)(=O)=O)ccc1OC [TIAPRIDE] ; pIC50 = < 3.88

Form: compound = CC(C(=O)O)c1ccc2c(c1)Cc1cccnc1O2 (centres undefined) ; pIC50 = < 3.88

Form: compound = NCCCC(N)(C(=O)O)C(F)F (centres undefined) [EFLORNITHINE HYDROCHLORIDE] ; pIC50 = < 3.88

Form: compound = CC(=O)O[C@H]1C[C@@H]2CC[C@@H]3[C@H](CC[C@@]4(C)[C@H]3C[C@H]([N+]3(C)CCCCC3)[C@@H]4OC(C)=O)[C@@]2(C)C[C@@H]1N1CCCCC1 [VECURONIUM BROMIDE] ; pIC50 = < 3.88

Form: compound = CO[C@H]1/C=C/O[C@@]2(C)Oc3c(C)c(O)c4c(O)c(c5c(nc6cc(C)ccn65)c4c3C2=O)NC(=O)/C(C)=C\C=C\[C@H](C)[C@H](O)[C@@H](C)[C@@H](O)[C@@H](C)[C@H](OC(C)=O)[C@@H]1C ; pIC50 = 4.38

Form: compound = NC(=O)c1cnccn1 [PYRAZINAMIDE] ; pIC50 = < 3.88

Form: compound = Cn1c(=O)n(-c2ccc(C(C)(C)C#N)cc2)c2c3cc(-c4cnc5ccccc5c4)ccc3ncc21 ; pIC50 = 5.10
